- assay_notes: Stability test in human liver microsomes
- Format: in vitro ADME, humans
- measurement_conditions: pH 7.4; human liver microsomes 0.5 mg/mL, 1.0 μM substrate; read-out: HLM 0.5 CLint(liver)
Listed here are compounds together with their documented CLint scaled at 1 μM.

// worked examples, CLint scaled at 1 μM included
O=C(Nc1cc2cccnc2c(N2CCC(F)(F)CC2)n1)c1ccc(NS(=O)(=O)CCO)cc1N1CCC2(CC1)CC2 < 8.6 mL/min/kg
O=C(Nc1cn2ccnc2c(N2CCC(F)(F)CC2)n1)c1ccc(NS(=O)(=O)CCO)cc1N1CCC2(CC1)CC2 < 8.6 mL/min/kg

Below: the item to evaluate.
Reported CLint scaled at 1 μM, compound CS(=O)(=O)Nc1ccc(C(=O)Nc2cn3ccnc3c(N3CCC(F)(F)CC3)n2)c(N2CCC3(CC2)CC3)c1 : ____ < 8.6 mL/min/kg

====

- assay_notes: Pharmacokinetic test in rats
- Type: in vivo
- measurement_conditions: SD rats, PO @5mpk
assay_metric: F (%)

Solved entries (count: 6):
O=C(Nc1cn2ccnc2c(N2CCC(F)(F)CC2)n1)c1ccc(NS(=O)(=O)CCO)cc1N1CCC2(CC1)CC2 16
O=C(Nc1cc2cccnc2c(N2CCC(F)(F)CC2)n1)c1ccc(NS(=O)(=O)CCO)cc1N1CCC2(CC1)CC2 24.7
O=C(Nc1cn2ccnc2c(N2CCOCC2)n1)c1ccc(NS(=O)(=O)CCO)cc1N1CCC2(CC1)CC2 25
CS(=O)(=O)Nc1ccc(C(=O)Nc2cn3ccnc3c(N3CCC(F)(F)CC3)n2)c(N2CC3CCC(C3)C2)c1 63
O=C(Nc1cc2ccccc2c(N2CCC(F)(F)CC2)n1)c1ccc(NS(=O)(=O)CCO)cc1N1CCC2(CC1)CC2 23
O=C(Nc1cn2ccnc2c(N2CCCCC2)n1)c1ccc(NS(=O)(=O)CCO)cc1N1CCC2(CC1)CC2 18.3

(A) O=C(Nc1cc2c(c(N3CCC(F)(F)CC3)n1)COC2)c1ccc(NS(=O)(=O)CCO)cc1N1CCC2(CC1)CC2
(B) Cc1cc(NC(=O)c2ccc(NS(=O)(=O)CCO)cc2N2CC3CCC(C3)C2)nc(N2CCC(F)(F)CC2)n1
(C) O=C(Nc1cn2ccnc2c(N2CCC(F)(F)CC2)n1)c1ccc(NS(=O)(=O)CCO)cc1N1CC2CCC(C2)C1
hey, can you rank those compounds up there by F? biggest number first please Ranked list of labels, please, in the requested order. B, C, A

====

pIC50: −log10 of the molar value.
Please consider the recorded pIC50 for cytochrome oxidase P450 2D6 (Homo sapiens (Human)) in what follows.

Some compounds with known pIC50 results, for comparison:
compound	pIC50
O=C(Nc1cn2c(F)cnc2c(N2CCC(F)(F)CC2)n1)c1ccc(NS(=O)(=O)CCO)cc1N1CCC2(CC1)CC2 [Compound 34]	< 5.00
O=C(Nc1cc2ccccc2c(N2CCC(F)(F)CC2)n1)c1ccc(NS(=O)(=O)CCO)cc1N1CCC2(CC1)CC2 [Compound 6]	< 5.00
CS(=O)(=O)Nc1ccc(C(=O)Nc2cc3cc[nH]c3c(N3CCC(F)(F)CC3)n2)c(N2CCC3(CC2)CC3)c1 [Compound 47]	5.65

Pending compound:
Which pIC50 value is on record for CS(=O)(=O)Nc1ccc(C(=O)Nc2cn3ccnc3c(N3CCC(F)(F)CC3)n2)c(N2CC3CCC(C3)C2)c1 [Compound 19] ? < 5.00

====

- assay_notes: Pharmacokinetic test in mice
- Assay type: in vivo
- measurement_conditions: mouse, plasma, 5 mg/kg; BALB/c mice, PO @5mpk
assay_metric: Cmax (µM)

CS(=O)(=O)Nc1ccc(C(=O)Nc2cn3ccnc3c(N3CCC(F)(F)CC3)n2)c(N2CC3CCC(C3)C2)c1 3.92
O=C(Nc1cn2ccnc2c(N2CCC(F)(F)CC2)n1)c1ccc(NS(=O)(=O)CCO)cc1N1CC2CCC(C2)C1 2.69
O=C(Nc1cc2ccsc2c(N2CCC(F)(F)CC2)n1)c1ccc(NS(=O)(=O)CCO)cc1N1CCC2(CC1)CC2 1.77

(P) CS(=O)(=O)Nc1ccc(C(=O)Nc2cc3nccnc3c(N3CCC(F)(F)CC3)n2)c(N2CC3CCC(C3)C2)c1
(Q) CS(=O)(=O)Nc1ccc(C(=O)Nc2cn3cnnc3c(N3CCC(F)(F)CC3)n2)c(N2CC3CCC(C3)C2)c1
(R) O=C(Nc1cn2ccnc2c(N2CCC(F)(F)CC2)n1)c1ccc(NS(=O)(=O)CCO)cc1N1CCC2(CC1)CC2
Kindly order the items shown according to Cmax, from the highest value down. Could you list the labels in the order requested? P, Q, R
(P: 5.34 µM, Q: 3.56 µM, R: 1.61 µM)

====

- assay_notes: Pharmacokinetic test in mice
- Format: in vivo
- measurement_conditions: BALB/c mice, PO @30mpk
assay_metric: F (%)

Examples with their reported F follow.
compound	unit_of_measure	measured_value
Cn1ncc2cc(NC(=O)c3ccc(NS(C)(=O)=O)cc3N3CC4CCC(C4)C3)nc(N3CCC(F)(F)CC3)c21 [Compound 56]	%	142
O=C(Nc1cc2nccnc2c(N2CCC(F)(F)CC2)n1)c1ccc(NS(=O)(=O)CCO)cc1N1CC2CCC(C2)C1 [Compound 73]	%	72
O=C(Nc1cn2c(F)cnc2c(N2CCC(F)(F)CC2)n1)c1ccc(NS(=O)(=O)CCO)cc1N1CCC2(CC1)CC2 [Compound 34]	%	147

(A) Cn1ncc2cc(NC(=O)c3ccc(NS(=O)(=O)CCO)cc3N3CC4CCC(C4)C3)nc(N3CCC(F)(F)CC3)c21 [Compound 55]
(B) CS(=O)(=O)Nc1ccc(C(=O)Nc2cn3ncnc3c(N3CCC(F)(F)CC3)n2)c(N2CCC3(CC2)CC3)c1 [Compound 57]
So which one has the bigger F here, A or B ? Mark your selection by writing its label. A
(A: 109%, B: 44%)

(1) CS(=O)(=O)Nc1ccc(C(=O)Nc2cn3ccnc3c(N3CCC(F)(F)CC3)n2)c(N2CC3CCC(C3)C2)c1 [Compound 19]
(2) CS(=O)(=O)Nc1ccc(C(=O)Nc2cc3cn[nH]c3c(N3CCC(F)(F)CC3)n2)c(N2CC3CCC(C3)C2)c1 [Compound 69]
Returns: the label, 1 or 2 , whose recorded F is the lower number. Your answer should be the label attached to the chosen record. 1
(1: 92%, 2: 385%)

(a) CS(=O)(=O)Nc1ccc(C(=O)Nc2cc3cccnc3c(N3CCC(F)(F)CC3)n2)c(N2CC3CCC(C3)C2)c1 [Compound 33]
(b) CS(=O)(=O)Nc1ccc(C(=O)Nc2cn3ncnc3c(N3CCC(F)(F)CC3)n2)c(N2CC3CCC(C3)C2)c1 [Compound 53]
(c) O=C(Nc1cc2cccnc2c(N2CCC(F)(F)CC2)n1)c1ccc(NS(=O)(=O)CCO)cc1N1CCC2(CC1)CC2 [Compound 21]
List the 3 entries from lowest F to highest F value. Please write the labels in the order that was asked for. b, c, a

(a) CS(=O)(=O)Nc1ccc(C(=O)Nc2cn3c(F)cnc3c(N3CCC(F)(F)CC3)n2)c(N2CC3CCC(C3)C2)c1 [Compound 52]
(b) O=C(Nc1cc2cc[nH]c2c(N2CCC(F)(F)CC2)n1)c1ccc(NS(=O)(=O)CCO)cc1N1CCC2(CC1)CC2 [Compound 22]
(c) O=C(Nc1cn2c(F)cnc2c(N2CCC(F)(F)CC2)n1)c1ccc(NS(=O)(=O)CCO)cc1N1CC2CCC(C2)C1 [Compound 51]
hey, can you rank those compounds up there by F? biggest number first please Output spec: labels arranged per the requested ranking. b, a, c

====

Test system KIF18A (Homo sapiens (Human)), IC50 listed for each of the molecules.
assay_metric: IC50 (nM)

molecule	unit_of_measure	measured_value
O=C(Nc1cn2ccnc2c(N2CCC(F)(F)CC2)n1)c1ccc(NS(=O)(=O)CCO)cc1N1CCC2(CC1)CC2 [Compound 8]	nM	21.3

(1) O=C(Nc1cn2ccnc2c(N2CCC(F)(F)CC2)n1)c1ccc(NS(=O)(=O)CCO)cc1N1CC2CCC(C2)C1 [Compound 17]
(2) O=C(Nc1cc2ncccc2c(N2CCC(F)(F)CC2)n1)c1ccc(NS(=O)(=O)CCO)cc1N1CCC2(CC1)CC2 [Compound 40]
(3) CC1(S(=O)(=O)Nc2ccc(C(=O)Nc3cn4ccnc4c(N4CCC(F)(F)CC4)n3)c(N3CCC4(CC3)CC4)c2)CC1 [Compound 13]
Given 3 molecules, produce a descending ranking by IC50. Please write the labels in the order that was asked for. 3, 2, 1
(3: 187 nM, 2: 62.9 nM, 1: 16.4 nM)

====

- assay_notes: Pharmacokinetic test in rats
- Format: in vivo
- measurement_conditions: rat, plasma, 30 mg/kg; SD rats, PO @30mpk
assay_metric: AUC (µM·h)
Just the number in µM·h, nothing appended.

Could you tell me which AUC is on file for O=C(Nc1cn2c(F)cnc2c(N2CCC(F)(F)CC2)n1)c1ccc(NS(=O)(=O)CCO)cc1N1CCC2(CC1)CC2 ? 62.5
